Assayed System: recombinant human renin (Homo sapiens, UniProt P00797)
Sequence (P00797 67-406): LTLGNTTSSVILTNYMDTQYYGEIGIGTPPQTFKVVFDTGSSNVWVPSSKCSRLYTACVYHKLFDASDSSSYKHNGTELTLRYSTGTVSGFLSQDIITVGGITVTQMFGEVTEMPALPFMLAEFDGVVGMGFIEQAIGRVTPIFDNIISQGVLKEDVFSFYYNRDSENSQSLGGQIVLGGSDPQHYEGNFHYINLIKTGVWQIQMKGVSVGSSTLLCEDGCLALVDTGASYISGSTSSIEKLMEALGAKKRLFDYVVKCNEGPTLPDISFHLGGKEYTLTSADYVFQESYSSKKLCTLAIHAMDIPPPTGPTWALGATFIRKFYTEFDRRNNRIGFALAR
Assay Procedure: Primary renin inhibition assay: IC50 in buffer, 384 well MTP (AngI quantified by EIA)
Observation Type: pIC50
Give bare numbers, as −log10 of the molar value.

[in] Fill in: pIC50 of COCCCc1cc(CN(C(=O)[C@H]2CNCC[C@]2(O)c2ccc(OCCOc3c(Cl)cc(C)cc3Cl)nc2)C2CC2)c(Cl)c[n+]1[O-] [Example 7] is ___
[out] 9.64
